conditions: buffer; pH 7.4; 200.0 µM
Label False if solubility kinetic falls below 0.04 mg/mL; label True in every other case.

- CN1CCN(C(=S)c2ccc(-c3cc(Cl)ccc3Cl)o2)CC1: False
- C/C(=C/c1ccccc1)C(=O)N1CCN(c2ccc(F)cc2)CC1: False
- CCCN(CCC)CC(O)COc1ccc2c(c1)OCO2.Cl (stereo not drawn): True
- O=C1Cc2cc(S(=O)(=O)Nc3ccc(N4CCOCC4)cc3)ccc2N1: True
- CCN(Cc1ccncc1)C(=O)c1ccco1: False

Enquiry: Can COc1cc(C)ccc1OCCON1C(=O)CCC1=O be said to have solubility kinetic at or above 0.04 mg/mL?
Return: True

Enquiry: Another compound to check: N#Cc1ccccc1OCC(O)CS(=O)(=O)c1ccccc1 (stereo not drawn)
Return: True

====

conditions: buffer; pH 7.4; 200.0 µM
In this section we review reported solubility kinetic values for a set of molecules.

Enquiry: Any idea what solubility kinetic was measured for CCOc1ccc(NC(=O)CN(C)C(=O)C2COc3ccccc3O2)cc1OCC (stereo not given) ?
Return: > 62.2 µg/mL

Enquiry: Another molecule to check: COc1ccc(NC(=O)[C@@H](NC(N)=O)C(C)C)cc1Cl
Return: > 45 µg/mL

Enquiry: Another molecule to check: Cc1nc(SCc2ccccc2)c2oc3ccccc3c2n1
Return: < 0.3 µg/mL

Enquiry: Another molecule to check: Cc1ccnc(NC(=O)c2ccco2)n1
Return: > 30.5 µg/mL

Enquiry: Another molecule to check: CCOc1ccc(S(=O)(=O)Nc2ccc(OC)nc2)cc1
Return: > 46.3 µg/mL

====

In this section we review reported solubility kinetic values for a set of compounds.
conditions: buffer; pH 7.4; 200.0 µM

• CCOc1ccccc1NC(=O)N1CCCc2ccccc21 = < 0.3 µg/mL
• S=C(NCCc1ccccn1)NC1CC2CCC1C2 (centres undefined) = > 41.3 µg/mL
• COc1ccc(OCCn2c(N)nc3ccccc32)cc1 = > 42.5 µg/mL

Enquiry: Any idea what solubility kinetic was measured for Cc1c(C(=O)C(=O)NCc2ccco2)c2ccccc2n1C ?
Return: > 44.4 µg/mL

Enquiry: Another compound to check: COc1ccccc1NC(=O)c1ccccc1NC(=O)c1cccs1
Return: < 0.4 µg/mL

Enquiry: Another compound to check: CCNC(=O)CC1C(=O)N(c2cccc(C)c2)C(=O)N1CCC(C)C (centres undefined)
Return: > 51.8 µg/mL

Enquiry: Another compound to check: CN1CCN(c2nc3ccccc3o2)CC1
Return: > 32.6 µg/mL

Enquiry: Another compound to check: Cc1ccc(NC(=O)Nc2ccno2)cc1
Return: > 32.6 µg/mL

Enquiry: Another compound to check: O=C(O)c1ccccc1-c1ncc(-c2ccccc2)o1
Return: > 39.8 µg/mL

====

settings: buffer; pH 7.4; 200.0 µM
PROPERTY_MEASURED: solubility kinetic

Reference set, count: 5
- O=C(c1ccc2ccccc2n1)N1CCN(c2ccccn2)CC1: > 47.8 µg/mL
- Cn1c(=O)n(C)c2cc([N+](=O)[O-])c(N3CCNCC3)cc21: > 43.7 µg/mL
- COc1cccc(NC(=O)c2sc(Cl)nc2C)c1: > 42.4 µg/mL
- CC(=O)Nc1ccc(OCCOc2ccccc2C(C)=O)cc1: > 47 µg/mL
- O=C(CC(Nc1ccccc1)c1ccccc1)C1CC1 (stereo not drawn): < 0.6 µg/mL

Enquiry: Any idea what solubility kinetic was measured for Cc1ccc(C(=O)NCc2cccnc2)o1 ?
Return: > 32.4 µg/mL

Enquiry: Another molecule to check: CN(C)CCCNC(=O)c1ccccc1Oc1ccccc1
Return: > 44.8 µg/mL

Enquiry: Another molecule to check: O=C(O)CC1(CC(=O)Nc2ccc(F)c(Cl)c2)CCCCC1
Return: > 49.2 µg/mL

Enquiry: Another molecule to check: CCOc1ccc(C(=O)NC2CC(C)(C)NC(C)(C)C2)cc1.Cl
Return: > 51.1 µg/mL

Enquiry: Another molecule to check: COc1ccc(OC)c(NC(=O)CCCC(=O)NC2CCCCC2)c1
Return: > 52.3 µg/mL

Enquiry: Another molecule to check: CC(C)CCSc1nnc(N)s1
Return: > 30.5 µg/mL

Enquiry: Another molecule to check: Cc1cccc(C(=O)Oc2cc(C)[nH]c(=O)c2[N+](=O)[O-])c1
Return: > 43.2 µg/mL

Enquiry: Another molecule to check: O=C(O)c1cccc(S(=O)(=O)N2CCN(c3ccccn3)CC2)c1
Return: > 52.1 µg/mL

Enquiry: Another molecule to check: CC(C)NC(=O)CN1CCC(c2nc3ccccc3[nH]2)CC1
Return: > 45.1 µg/mL

Enquiry: Another molecule to check: Cc1nc2c(C(F)(F)F)cccc2c2c1CCS2
Return: < 0.6 µg/mL

Enquiry: Another molecule to check: CCCC(=O)Nc1cc2c3c(c1)CCN3C(=O)CC2
Return: > 38.7 µg/mL

Enquiry: Another molecule to check: CCCn1c(N)c(C(=O)CN2CCc3ccccc3C2)c(=O)n(C)c1=O
Return: > 53.5 µg/mL

Enquiry: Another molecule to check: CC1Oc2ccccc2N(CC(=O)NC2CCCCC2)C1=O (stereo not drawn)
Return: > 45.4 µg/mL

Enquiry: Another molecule to check: CNC(=O)c1cc(S(=O)(=O)Nc2ccc3c(c2)OCCO3)ccc1C
Return: > 54.4 µg/mL

Enquiry: Another molecule to check: CCCc1cnc(N2CCN(S(=O)(=O)c3cccs3)CC2)nc1
Return: < 0.2 µg/mL

Enquiry: Another molecule to check: O=C(Cc1ccc(Cl)c(Cl)c1)N1CCOCC1
Return: > 41.1 µg/mL

Enquiry: Another molecule to check: COc1cc(-c2nnc(SCc3cc(=O)oc4cc(O)c(O)cc34)o2)cc(OC)c1OC
Return: > 68.8 µg/mL

Enquiry: Another molecule to check: CCCC(C)NC(=O)CN1C(=O)NC2(CCc3ccccc32)C1=O (stereo not drawn)
Return: > 49.4 µg/mL
